# subject.of.test: T1, MCH-R1 (Homo sapiens (Human), UniProt Q99705 1-353)
# T1 construct: also called MCH-1R; CHO/MCH-R1
# measurement.protocol: SPA, displacement of [125I]Phe13Tyr19-MCH from MCH-R1 membranes

binder: DFDMLRCMLGRVFRPCWQY [(Phe^13Tyr^19)-MCH]
IC50: 0.3 nM

// data source = patent US6593108B1
